TEST_DESCRIPTION: qHTS RealTime-Glo MT Cell Viability Assay in HepG2 cells - 40 hour (AID 1224870); further: nearly all actives have a fitted effect of over 50% in size
RUN_CONDITIONS: RealTime-Glo luminescence; series mostly up to 76.8 µM
Inconclusive results are not listed. The source made the active and inactive calls. The call rests on the fitted dose curve; in most records, active means well fitted cell-killing curve with a large enough effect in the repeat runs; inconclusive means weak or mixed curves, or effect the other way; inactive means flat fitted curve, though single readings scatter.
MEASUREMENT_KIND: activity change, negative = cytotoxic

> print(dat)
        structure.smiles.string  recorded.result
1          CCCCCCCCCCCCCCCCCC#N         inactive
2   CCCC(=O)OC/C=C(\C)CCC=C(C)C         inactive
3  C=C(C)c1cccc(C(C)(C)N=C=O)c1         inactive
